Test system: K4 kissing-loop RNA reporter;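 also: bound reporter read as fluorescence of individual clusters on recovered sequencing chips by microscopy, with normalized cluster intensities fitted with a binding model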
experimentNotes: apparent KD of K4 kissing-loop reporter; higher = weaker reporter binding
experimentalParameters: Eterna round: R107; input ligand: tryptophan 2.4 mM
Tick YES if apparent KD of K4 kissing-loop reporter is 200 nM or greater. Tick NO if apparent KD of K4 kissing-loop reporter is less than 200 nM.

Check this sequence for apparent KD of K4 kissing-loop reporter at or above 200 nM: UUUUAAAUGUCUGAUACCAGAGAAAAUAUAUGUAGUGAUGUUAUAUACAAAAUAAAUAAGCUCCCUUGGCAGCAGUAUUAAUUUU [AstrosExc-TheB#6]
YES

Next:
Check this sequence for apparent KD of K4 kissing-loop reporter at or above 200 nM: UUUUUGGAGAAUUAUAGUGAUGUUAUGAAGGAGGAUAUCUGGAGAUGGAGAAGGCCUAGUGGCUCAGCCCUCGCGGGUGGGUGGG [ExFMNA.aD]
YES

Please check the record CGCAGUGAUGUUGUGAUUAACUACAGGGAAGGAGCGUGCUAGAGCACAGGUAGGUCGCCCAGUGGCCGAGUGAUGUUCGGCGGGU [Same State Arginine A GF 27] and state if its apparent KD of K4 kissing-loop reporter is at or above 200 nM.
NO

# check: apparent KD of K4 kissing-loop reporter of GCCUAGGCUCGAAAGAGCCUAGGCUUUACUCAGGAUAUCUGGAAACAGAGAAGGGAGCUACUAGUGAUGUUAGGAAUUCCCUAAG is greater than or equal to 200 nM
NO
